Assay: qHTS for Inhibitors of human tyrosyl-DNA phosphodiesterase 1 (TDP1): qHTS in cells in presence of CPT; note: nearly all actives have a fitted effect of over 55% in size
Conditions: chicken DT40 Tdp1-/-;hTDP1 cells + 20 nM CPT, ATP luminescence, 48 h; series mostly up to 46.2 µM
Screen size: about 420,000 compounds; about 50,000 (12%) were called active. Not shown: some 26% with an inconclusive outcome. Calls come from the whole dose curve; as a rule, active = well fitted inhibition curve with a large enough effect; inconclusive = small, poorly fitted or top-dose-only effect; inactive = flat fitted curve, though single readings scatter. This excerpt belongs to a sample that is enriched for actives.
Parameter call: string, one of active, inactive

- Compound: "O=C(COC(=O)c1cccc(Cl)c1)Nc1ccc2[nH]c(=O)[nH]c2c1"
  Cat: "inactive"
- Compound: "CCC(C)NC(=O)Cn1c(=O)n(-c2ccc(Cl)cc2)c(=O)c2c3c(sc21)CCCC3 (stereo not given)"
  Cat: "inactive"
- Compound: "Cc1sc2c(c1C)c(=O)n(-c1ccccc1)c(=O)n2CC(=O)NCC1CCCO1 (stereo not given)"
  Cat: "inactive"
- Compound: "CCOc1ccc(C2C(C(=O)Nc3ccc(Cl)cc3)=C(C)Nc3nc(C(F)(F)F)nn32)cc1 (stereo not given)"
  Cat: "active"

// switching to the query compound
Input: Any idea what this test logged for COc1ccc(C(=O)c2oc3ccccc3c2NC(=O)COc2cccc(C)c2)cc1 ?
Output: inactive

====

Assay: qHTS for Inhibitors of human tyrosyl-DNA phosphodiesterase 1 (TDP1): qHTS in cells in presence of CPT; note: nearly all actives have a fitted effect of over 55% in size
Details: chicken DT40 Tdp1-/-;hTDP1 cells + 20 nM CPT, ATP luminescence, 48 h; series mostly up to 46.2 µM
Screen size: about 420,000 compounds; about 50,000 (12%) were called active. About 26% were inconclusive and are not listed. Calls follow the shape of the dose curve; as a rule, active = well fitted inhibition curve with a large enough effect; inconclusive = small, poorly fitted or top-dose-only effect; inactive = flat fitted curve, though single readings scatter. The sample as a whole holds a higher share of actives than the screen did.
Parameter call: string, one of active, inactive

Input: Any idea what this test logged for COc1ccc(CNCCCNCc2ccc(OC)c(OC)c2)cc1OC ?
Output: inactive

Input: Any idea what this test logged for COc1ccc(S(=O)(=O)N2CCCCCC2)cc1C(=O)N(C)Cc1cccc(OC)c1OC ?
Output: inactive

Input: Any idea what this test logged for CCC(C(=O)NC1CCCC1)N(C(=O)Cn1nnc(-c2ccc(C)o2)n1)c1ccc(OC)c(OC)c1 (stereo unspecified) ?
Output: inactive

Input: Any idea what this test logged for COc1ccc(-c2csc3nc(-c4ccccc4F)oc(=O)c23)cc1OC ?
Output: active

Input: Any idea what this test logged for Cc1ccc(CC2C(=O)N(c3ccc(F)cc3)C(=O)C2C)cc1 (stereo unspecified) ?
Output: inactive

Input: Any idea what this test logged for COc1cc(CNCc2ccc(OC)c3ccccc23)cc(OC)c1OC ?
Output: active

Input: Any idea what this test logged for CC(=O)N1CCN(CC(c2ccccc2)c2ccccc2)CC1 ?
Output: inactive

Input: Any idea what this test logged for CCn1c(SCC(=O)N2CCCC2=O)nc2ccccc21 ?
Output: inactive

====

Assay: qHTS for Inhibitors of human tyrosyl-DNA phosphodiesterase 1 (TDP1): qHTS in cells in presence of CPT; note: nearly all actives have a fitted effect of over 55% in size
Conditions: chicken DT40 Tdp1-/-;hTDP1 cells + 20 nM CPT, ATP luminescence, 48 h; series mostly up to 46.2 µM
The campaign covered roughly 420,000 compounds. About 50,000 (12%) were called active. Another 26% or so got no clear call; they are omitted. The call rests on the fitted dose curve; in most records, active means well fitted inhibition curve with a large enough effect; inconclusive means small, poorly fitted or top-dose-only effect; inactive means flat fitted curve, though single readings scatter. The full list was thinned out, with actives kept by preference.
Parameter call: string, one of yes (1) (active), no (0) (inactive)

Recorded results for 3 compounds are shown here.
- Compound: "Cc1cc(C)cc(OCC(=O)Nc2ccc(S(=O)(=O)Nc3ccccn3)cc2)c1"
  Cat: "no (0)"
- Compound: "O=C(NCCS(=O)(=O)N1CCN(c2ccccc2)CC1)c1ccco1"
  Cat: "no (0)"
- Compound: "Cc1ccc(C(=O)NCC(=O)NC2CC2)cc1"
  Cat: "no (0)"

Input: Any idea what this test logged for Cc1cc(C)cc(NC(=O)C2CCCN(S(=O)(=O)c3ccc4[nH]c(=O)ccc4c3)C2)c1 (stereo unspecified) ?
Output: no (0)

Input: Any idea what this test logged for COC(=O)Cc1ccc(Oc2ncc(C(F)(F)F)cc2Cl)cc1 ?
Output: no (0)

Input: Any idea what this test logged for COC(=O)[C@H]1[C@H]2C[C@H]3c4[nH]c5ccccc5c4CCN3C[C@@H]2CC[C@@H]1O ?
Output: no (0)

Input: Any idea what this test logged for O=C(CNC(=O)c1ccccc1F)OCC(=O)c1c[nH]c2ccccc12 ?
Output: no (0)

Input: Any idea what this test logged for COC(=O)c1ccc(CNC(=O)C2CCC(=O)N(Cc3ccccn3)C2)cc1 (stereo unspecified) ?
Output: no (0)

Input: Any idea what this test logged for O=C(CN(CC1CCCO1)C(=O)CNS(=O)(=O)c1ccc(F)cc1)NCc1ccco1 (stereo unspecified) ?
Output: no (0)

Input: Any idea what this test logged for Cc1cc(C)cc(NS(=O)(=O)c2ccc(Oc3ncc(C(F)(F)F)cc3Cl)cc2)c1 ?
Output: yes (1)

Input: Any idea what this test logged for C=CCN1C=C(C(=O)c2ccccc2)C(=O)CC1 ?
Output: no (0)

Input: Any idea what this test logged for COC(=O)c1ccc2ccccc2c1OC1OC(CO)C(O)C(O)C1NC(C)=O (stereo unspecified) ?
Output: no (0)

Input: Any idea what this test logged for Cc1ccc(N(C(=O)c2ccc(CN3CCOCC3)o2)C(C(=O)NCCC(C)C)c2cccs2)c(C)c1 (stereo unspecified) ?
Output: no (0)

Input: Any idea what this test logged for C[C@@H]1ON(C)[C@H]2C[C@H]3c4cc(N5CCN(C)CC5)ccc4CCN3C(=O)[C@@H]12 ?
Output: no (0)

Input: Any idea what this test logged for O=C(COC(=O)c1cccnc1Cl)NC12CC3CC(CC(C3)C1)C2 ?
Output: no (0)

Input: Any idea what this test logged for CC(C)C[C@H](NC(=O)N1CC(=O)Nc2ccccc21)C(=O)N[C@H](Cc1ccccc1)C(=O)O ?
Output: no (0)

Input: Any idea what this test logged for COc1ccc(-c2ccc3[nH]c4c(c3c2)CCN2C[C@H]3[C@H](C)ON(C)[C@H]3C[C@@H]42)cc1 ?
Output: yes (1)

Input: Any idea what this test logged for COc1cc(C(=O)OCC(=O)NC23CC4CC(CC(C4)C2)C3)cc(OC)c1OC ?
Output: yes (1)

Input: Any idea what this test logged for COc1ccc(-c2cc(-c3ccc(F)cc3)nc3c2COc2ccccc2-3)cc1 ?
Output: no (0)

Input: Any idea what this test logged for CC(C)(C)C(=O)NC1CC2CCCC(C1)N2C(=O)Nc1ccccc1F (stereo unspecified) ?
Output: no (0)

Input: Any idea what this test logged for C=CCN1C(=O)C2(OCCCO2)c2cccc(Cl)c21 ?
Output: no (0)

====

Experiment: qHTS for Inhibitors of human tyrosyl-DNA phosphodiesterase 1 (TDP1): qHTS in cells in presence of CPT; note: nearly all actives have a fitted effect of over 55% in size
Details: chicken DT40 Tdp1-/-;hTDP1 cells + 20 nM CPT, ATP luminescence, 48 h; series mostly up to 46.2 µM
The campaign covered roughly 420,000 compounds. About 50,000 (12%) were called active. About 26% were inconclusive and are not listed. The call rests on the fitted dose curve; in most records, active means well fitted inhibition curve with a large enough effect; inconclusive means small, poorly fitted or top-dose-only effect; inactive means flat fitted curve, though single readings scatter. What follows is part of a selection rich in actives, with near analogues and random picks from the rest.
Parameter call: string, one of 1 (active), 0 (inactive)

- Compound: "COc1ccc(NS(=O)(=O)c2cc(NC(=O)c3ccc(S(=O)(=O)N(C)C)cc3)ccc2N2CCOCC2)cc1"
  Cat: 0
- Compound: "COc1ccc(/C=N/NC(=O)c2cccc(C(F)(F)F)c2)cc1"
  Cat: 0
- Compound: "CC(C)Cn1cnc2c1c(=O)n(CC(O)c1ccccc1)c(=O)n2CC(C)C (stereo not given)"
  Cat: 0
- Compound: "C=CC[C@H](CC(=O)N(CCO)Cc1ccccc1)C(=O)N[C@@H](COC(=O)[C@@H](CC=C)Cc1ccc(F)cc1)Cc1ccccc1"
  Cat: 1
- Compound: "COCCCNC(=S)N(Cc1ccccc1)Cc1ccc(F)cc1"
  Cat: 0
- Compound: "COc1cc(OC)cc(C(=O)Nc2ccc3nc(Nc4cccc(C(F)(F)F)c4)cc(C)c3c2)c1"
  Cat: 1
- Compound: "C=CCC(NC(=O)Cc1ccccc1)C(=O)NCCC (stereo not given)"
  Cat: 0
- Compound: "COc1ccc(NC(=O)C(=O)NCC(=O)Nc2cccc(C(F)(F)F)c2)cc1"
  Cat: 0

Input: Any idea what this test logged for COc1cc(OC)c(NS(=O)(=O)c2cn(C)cn2)cc1Cl ?
Output: 0

Input: Any idea what this test logged for C=CCC[C@H](Cc1ccc(F)cc1)C(=O)OC[C@H](C)NC(=O)[C@H](CC=C)CC(=O)N(CCO)Cc1ccccc1 ?
Output: 1

====

Assay: qHTS for Inhibitors of human tyrosyl-DNA phosphodiesterase 1 (TDP1): qHTS in cells in presence of CPT; note: nearly all actives have a fitted effect of over 55% in size
Details: chicken DT40 Tdp1-/-;hTDP1 cells + 20 nM CPT, ATP luminescence, 48 h; series mostly up to 46.2 µM
The campaign covered roughly 420,000 compounds. About 50,000 (12%) were called active. Roughly 26% stayed inconclusive and do not appear here. Calls follow the shape of the dose curve; as a rule, active = well fitted inhibition curve with a large enough effect; inconclusive = small, poorly fitted or top-dose-only effect; inactive = flat fitted curve, though single readings scatter. The full list was thinned out, with actives kept by preference.
Parameter call: string, one of 1 for active, -1 for inactive

Input: Any idea what this test logged for CC(=O)N1Cc2cc(C(=O)NCc3cccc(F)c3)nc(-c3cccc(C4=CCCC4)c3)c2[C@H]1CCO ?
Output: 1

Input: Any idea what this test logged for O=C(CCNS(=O)(=O)c1ccccc1C(F)(F)F)NCc1ccc2c(c1)OCO2 ?
Output: -1
